- Tested on: CAKI-1
- protocol.description: NCI tumour cell line growth inhibition, 48 h
Active and inactive are the calls of the source. No stated cut-off is given here; in the data, active = GI50 up to about 1.1 µM and inactive = higher.
Pick one and only one: active, inactive

Which outcome was assigned to CC[C@@]1(O)C[C@H](OC2CC(N(C)C)C(O)C(C)O2)c2c(cc3c(c2O)C(=O)c2c(O)ccc(O)c2C3=O)[C@H]1C(=O)OC (stereo not given in full) in this test?
active

Tell me the recorded outcome of this test for OC1c2c(ccc3c2CCC3)CC12Cc1ccccc1C2 (stereo not given) .
inactive

Write down the call the test reported for this compound. Item: Cc1cc(O)cc2oc(=O)c3c(O)cc(O)cc3c12 [ALTERNARIOL]
inactive

Hi, sorry to bother you, what did the test record for Cc1nc(N2N=C(c3ccc(Cl)cc3)CCC2=O)sc1[N+](=O)[O-] ?
inactive

Check the results log: what was the call for CC12O[C@H](c3ccccc3)[C@H](c3ccccc3)N1C(=O)C1(C(=O)OCc3ccccc3)CC12 (stereo not given in full) ?
inactive

----------
Would you mind telling me the reported GI50 of each entry?
- System: RXF 393
- protocol.description: NCI tumour cell line growth inhibition, 48 h
Activity calls are given as the source filed them. Cut-off read from the data, not from the text of the source: active = GI50 up to about 1.1 µM and inactive = higher.

Query the reported GI50 for RXF 393; item: CC(=O)OC[C@H]1[C@@H]2C(CC[C@]13CO3)OC(=O)CC(C)[C@]2(C)CCc1ccoc1 (stereo partly specified)
> 100 µM (inactive)

Form entry - test system: RXF 393; read-out: GI50; compound: O/N=C1/CCC/C1=C\c1ccccc1
96.6 µM (inactive)

Recorded GI50 for CN(C)C(=O)c1ccc([N+](=O)[O-])cc1 with RXF 393, please?
> 100 µM (inactive)

Lab request: please report GI50 under test system RXF 393 for NNC(N)Nc1ccccc1 (stereo unspecified)
> 100 µM (inactive)

Notebook: pull reported GI50 for RXF 393, entry FC(F)(F)c1n[nH]c(SCc2ccc(Cl)cc2)n1
> 100 µM (inactive)

Return GI50 measured with RXF 393 given this compound: CCOC(=O)c1c(N)sc2c1C(C(=O)OCC)CCCC2 (stereo unspecified)
17.3 µM (inactive)

# get_value(readout= GI50, system= RXF 393) for COP(=N[Si](C)(C)C)(OC)OC
> 100 µM (inactive)

Give RXF 393 GI50 for COCCCNC(=O)C1C(=O)N(CCCOC)C(=O)/C1=N\N (stereo unspecified)
> 100 µM (inactive)

State its GI50 on RXF 393: CN(C)c1ccc(/C=C(\C#N)C(=O)c2ccccc2)cc1Br
14.6 µM (inactive)

Short answer please: GI50, RXF 393, entry O=C1Nc2ccc(Br)cc2/C1=N/c1ccc2c(c1)OCO2
20.3 µM (inactive)

Lab note: need GI50 for c1cc2cc(Cc3ccc4[nH]ccc4c3)ccc2[nH]1 on RXF 393, anyone have it?
19.6 µM (inactive)

----------
- Tested on: HOP-92
- protocol.description: NCI tumour cell line growth inhibition, 48 h
Active and inactive are the calls of the source. Rule as the data show it: active = GI50 up to about 1.1 µM and inactive = higher.
Task for the reader: assign each of the following compounds its reported GI50.

Return reported GI50; argument: O=C(c1ccccc1)C(C(=O)c1ccccc1)c1nc2ccccc2sc1=O
2.72 µM (inactive)

Query: GI50; subject: CC(=O)OC1C[C@@H](C)C2(CC(c3ccoc3)OC2=O)C2CCC(O)C3(CO3)C12CO (stereo partly drawn)
> 100 µM (inactive)

What value of GI50 has been recorded for this entry: CC(C)Oc1c(N(Cc2ccccc2)c2ccccc2C2SCCCS2)c(=O)c1=O
6.81 µM (inactive)

Could you share which GI50 value was measured for COc1ccc(NC2C(=O)C3(C)CCC2C3(C)C)cc1 (stereo not drawn) ?
33.4 µM (inactive)

Could you share which GI50 value was measured for O=C(NC(=S)Nc1ccc([N+](=O)[O-])cc1)c1ccc2c(c1)Sc1ccccc1O2 ?
37.3 µM (inactive)

I'd like to know its GI50. The compound in question is O=C1C(O)=C(CC=C(Cl)Cl)C(=O)c2ccccc21
43 µM (inactive)

Can you look up the measured GI50 of COc1ccc2c(-c3cc4ccccc4o3)cc(=O)oc2c1 for me?
24.3 µM (inactive)

Consider the compound O=S(=O)(O)c1ccc(/N=N\c2ccc(/N=N\c3ccc(/C=C/c4ccc(/N=[N+](/[O-])c5ccc(/C=C/c6ccc(/N=N/c7ccc(/N=N\c8ccc(S(=O)(=O)O)cc8)cc7)cc6S(=O)(=O)O)c(S(=O)(=O)O)c5)cc4S(=O)(=O)O)c(S(=O)(=O)O)c3)cc2)cc1 and give its measured GI50.
> 100 µM (inactive)

----------
- Test system: EKVX
- protocol.description: NCI tumour cell line growth inhibition, 48 h
Activity calls are given as the source filed them. No stated cut-off is given here; in the data, active = GI50 up to about 1.1 µM and inactive = higher.
The reply should be one of these categories: active, inactive

Please state the recorded outcome for this compound: CC(C)=NN/C(=N\c1ccc(Cl)cc1)NS(=O)(=O)c1cc(Cl)c(Oc2ccc([N+](=O)[O-])cc2Cl)c(Cl)c1
inactive

Please share the test call associated with C[C@]12C=CC(=O)C=C1[C@@H](F)C[C@H]1[C@@H]3CC[C@](O)(C(=O)CO)[C@@]3(C)C[C@H](O)[C@@]12F .
inactive

Please state the recorded outcome for this compound: CC(=O)O[C@H]1C[C@]2(C)C(CCC3O[C@@]32C)[C@@]2(CC(c3ccoc3)OC2O)[C@@H]1C (some centres undefined)
inactive

Which result was noted for this compound in the test: c1ccc2c(c1)NC1(N3CCCCC3)CCCCC21 (centres undefined)
inactive

Test call, this compound: OCC(O)C(O)C(O)C(O)c1nnn[nH]1 (centres undefined)
inactive

Would you mind telling me which call this test gave Cc1cn(C(C)OCCN2C(=O)c3ccccc3C2=O)c(=O)[nH]c1=O (centres undefined) ?
inactive

Write down the call the test reported for this compound. Item: COc1cc2cc(C(=O)N3CC(CCl)c4c3cc(N)c3ccccc43)[nH]c2cc1OCCN(C)C (centres undefined)
active

Name the outcome recorded for O=C1c2c(c3c4ccccc4[nH]c3c3[nH]c4ccccc4c23)C(=O)N1Cc1ccccc1 in the assay.
inactive

Per the assay record, what outcome was assigned to O=C(c1ccccc1)C(C(=O)c1ccccc1)c1nc2ccccc2sc1=O ?
inactive

----------
Task for the reader: assign each of the following molecules its reported GI50.
- System: MCF7
- protocol.description: NCI tumour cell line growth inhibition, 48 h
Active and inactive are the calls of the source. No stated cut-off is given here; in the data, active = GI50 up to about 1.1 µM and inactive = higher.

Given the entry Cc1ccc2c(c1)C(=O)C1(C2)Cc2c(C)cccc2C1=O (stereo not drawn) , what GI50 was observed with MCF7?
> 100 µM (inactive)

Observed GI50 on MCF7 for COC(=O)[C@]12CCC(C)(C)C[C@H]1[C@H]1C(=O)C=C3[C@@]4(C)C=C(C#N)C(=O)C(C)(C)[C@@H]4CC[C@@]3(C)[C@]1(C)CC2 , please.
< 0.0107 µM (active)

For the record COc1ccc(C[C@H]2NC[C@H](OC(C)=O)[C@H]2OC(C)=O)cc1 , what value of GI50 is listed for MCF7?
0.14 µM (active)

Please provide the recorded GI50 for C#CC(O)/C=C/C(O)CCCC(O)CC#CC(O)C#CCCCCC(O)/C=C/CCCCCC(=O)CCCCCCCCCCCCCC(O)C(O)C#CC(=O)O (stereo not drawn) , tested on MCF7.
> 25 µM (inactive)

// fetch MCF7 GI50 for Cc1nnc([C@@]2(C)CC[C@H]3[C@@H](CC=C4C[C@@H](O)CC[C@@]43C)[C@@H]2CC#N)o1
> 100 µM (inactive)

Fill in the recorded GI50 for this molecule, with MCF7 as test system: COc1ccc(C(=O)/C=C/c2ccc(O)c(O)c2F)c(OC)c1
0.279 µM (active)

MCF7 / GI50 / c1ccc2c(c1)c1c3c(c4c(n32)=NCCN4)CCC1 : value?
24.8 µM (inactive)

Give GI50 (MCF7) of the following molecule: Cc1ccc(Nc2nnc3n2S(=O)(=O)c2cc(C)c(Cl)cc2S3)cc1
5.26 µM (inactive)

----------
- Test system: KM12
- protocol.description: NCI tumour cell line growth inhibition, 48 h
Activity calls are given as the source filed them. Cut-off read from the data, not from the text of the source: active = GI50 up to about 1.1 µM and inactive = higher.
Outcomes you can answer with include only these: true (1) = active, false (0) = inactive

Outcome? N#CC1(C#N)N[C@@H](c2ccsc2)[C@H]2C(=O)N(c3ccccc3)C(=O)[C@H]21
false (0)

Record lookup: outcome of this test for N#CCCN(CCC#N)c1ccc(/C=C2\N=C(COc3ccc(Cl)cc3Cl)OC2=O)cc1 ?
false (0)

Could you check what this test reported for NC(=O)CNC(=O)[C@@H]1C[C@@H](OCCC(=O)O)CN1C(=O)OCc1ccccc1 ?
false (0)

// outcome(item) with item = CC[C@@]1(O)C[C@H](OC2CC(N(C)C)C(O)C(C)O2)c2c(cc3c(c2O)C(=O)c2c(O)ccc(O)c2C3=O)[C@H]1C(=O)OC (some centres undefined)
true (1)

Name the outcome recorded for O[C@@]1(C#Cc2ccc3c(c2)OCO3)CCC[C@H]1NCc1ccccc1 in the assay.
false (0)

Outcome? COc1cc2c(cc1OC)C(Cc1cc(Br)c(OC)c(OC)c1)=[N+](C)CC2
false (0)

What call does the record list for CCn1c(-c2cc3ccccc3cc2OC(C)=O)n[nH]c1=S ?
false (0)

What was the test verdict on COc1cc(C2S/C(=C/c3ccccc3)C(=O)N2c2ccc([N+](=O)[O-])cc2)cc(OC)c1OC (centres undefined) ?
false (0)

Call for entry O=S(=O)(O)c1ccc2c(/N=N\c3cccc4ccccc34)c(O)c(S(=O)(=O)O)cc2c1 :
false (0)
